Target: tetanus neurotoxin (TeNT), authentic tetanus holotoxin (Clostridium tetani, UniProt P04958 2-1315)
Sequence (P04958 2-457 limits assumed, chain 1 of 2): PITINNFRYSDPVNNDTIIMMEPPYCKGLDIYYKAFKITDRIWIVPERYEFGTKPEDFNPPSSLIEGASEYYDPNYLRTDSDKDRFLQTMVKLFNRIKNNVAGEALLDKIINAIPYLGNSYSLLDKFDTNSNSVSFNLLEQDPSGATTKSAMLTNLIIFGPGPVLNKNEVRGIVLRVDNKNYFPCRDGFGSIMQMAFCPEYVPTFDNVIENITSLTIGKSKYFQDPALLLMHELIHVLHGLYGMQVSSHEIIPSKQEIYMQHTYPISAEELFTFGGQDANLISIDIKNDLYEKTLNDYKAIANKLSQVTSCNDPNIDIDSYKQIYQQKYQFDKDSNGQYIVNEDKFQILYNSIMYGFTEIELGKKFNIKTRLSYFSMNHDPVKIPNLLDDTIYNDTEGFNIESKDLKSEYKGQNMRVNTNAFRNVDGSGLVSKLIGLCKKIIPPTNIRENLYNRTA
Sequence (P04958 458-1315 limits assumed, chain 2 of 2): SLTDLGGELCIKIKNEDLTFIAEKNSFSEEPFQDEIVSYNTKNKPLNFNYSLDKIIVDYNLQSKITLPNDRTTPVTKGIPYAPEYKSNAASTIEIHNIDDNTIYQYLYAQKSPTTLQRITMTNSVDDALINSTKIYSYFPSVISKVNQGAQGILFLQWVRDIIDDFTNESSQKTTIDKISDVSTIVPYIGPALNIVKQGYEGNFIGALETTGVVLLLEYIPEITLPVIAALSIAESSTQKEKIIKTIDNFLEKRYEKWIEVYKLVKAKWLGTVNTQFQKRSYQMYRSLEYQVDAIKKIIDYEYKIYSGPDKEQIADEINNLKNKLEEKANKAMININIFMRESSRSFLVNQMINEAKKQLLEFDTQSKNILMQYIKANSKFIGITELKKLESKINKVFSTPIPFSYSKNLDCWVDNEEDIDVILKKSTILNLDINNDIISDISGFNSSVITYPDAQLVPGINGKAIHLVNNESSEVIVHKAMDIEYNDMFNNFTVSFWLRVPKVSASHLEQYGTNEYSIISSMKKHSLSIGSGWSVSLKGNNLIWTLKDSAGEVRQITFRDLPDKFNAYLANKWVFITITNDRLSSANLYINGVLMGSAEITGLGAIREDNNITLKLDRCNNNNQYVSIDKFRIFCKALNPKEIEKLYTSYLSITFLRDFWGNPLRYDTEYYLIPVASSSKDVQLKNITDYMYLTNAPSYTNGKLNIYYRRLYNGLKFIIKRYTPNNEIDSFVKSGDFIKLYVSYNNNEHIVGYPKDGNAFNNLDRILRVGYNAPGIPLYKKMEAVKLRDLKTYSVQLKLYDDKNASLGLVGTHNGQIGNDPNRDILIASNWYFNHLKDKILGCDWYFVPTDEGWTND
Test: ELISA, TeNT captured with cAb-TT2, biotinylated binder
Field: maximal absorbance at 450 nm. Provide a value for each of the binders that follow.
When you answer, write just the number.

Any idea what maximal absorbance at 450 nm was measured for SVT29L (VHH) VHH: QVQLQESGGGLVQTGGSLTLSCRAYGRAFDNYHFGWFRQAPGKDREFVASISWKGGSTYRANFALGRFTSSVNRGESSVYLHMSGLTPEDTATYYCAAHDGGDWNYHTGMDYWGKGILVTVSS ?
0.596

Now this one: SVT02L (VHH) VHH: QVQLQQSGGGSVQAGGSLRLSCVGPQRTFSTYGMGWFRQAPGKEREFVAGINYKGDTTYYADSVKGRFTISRDNAKNTLYLQMDSLKPEDRAVYQCARKGGLGGDYRDAGQYRYWGQGTQVTVSS
0.53

Now this one: SVT15L (VHH) VHH: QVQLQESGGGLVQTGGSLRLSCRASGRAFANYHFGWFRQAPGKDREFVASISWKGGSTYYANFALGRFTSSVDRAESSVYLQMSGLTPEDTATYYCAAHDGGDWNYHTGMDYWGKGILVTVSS
0.825

Now this one: SVT16L (VHH) VHH: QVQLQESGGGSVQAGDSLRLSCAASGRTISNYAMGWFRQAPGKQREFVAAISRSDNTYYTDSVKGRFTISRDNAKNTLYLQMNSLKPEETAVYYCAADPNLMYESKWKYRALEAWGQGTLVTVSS
0.971
